Data provenance: patent US10260089B2

Provide the recorded Average association constants Ka, M. tuberculosis (HRP6) for the entries that follow.
# Test system: ribosomal A-site model RNA hairpin HRP6
# experiment summary: ITC binding to bacterial ribosomal A-site model RNA hairpin HRP6 (Example 3)
# Parameters: species or system Mycobacterium tuberculosis
# condition info: sodium acetate buffer (pH 5.5)
Ends that are not written are not given here.

Write down the reported Average association constants Ka, M. tuberculosis (HRP6) of NH2-CTGCTT [PNA12] , test system: ribosomal A-site model RNA hairpin HRP6.
200000 M⁻¹

What is its Average association constants Ka, M. tuberculosis (HRP6) for ribosomal A-site model RNA hairpin HRP6? Entry: NH2-CCCTGCTT [PNA10]
1.2e+06 M⁻¹

Hi! What's the reported Average association constants Ka, M. tuberculosis (HRP6) for H-CCCTPCTT (cysteine pairing not given here) [PNA13] on ribosomal A-site model RNA hairpin HRP6?
1.5e+06 M⁻¹

Value wanted: Average association constants Ka, M. tuberculosis (HRP6) (ribosomal A-site model RNA hairpin HRP6) of entry NH2-CCTGCTT [PNA11]
200000 M⁻¹
